target: Substance-P receptor (Homo sapiens, UniProt P25103); test: Binding affinity against hTachykinin receptor 1 for the displacement of [3H]-substance P binding from Tachykinin receptor 1 CHO membrane
Sequence (P25103 whole entry): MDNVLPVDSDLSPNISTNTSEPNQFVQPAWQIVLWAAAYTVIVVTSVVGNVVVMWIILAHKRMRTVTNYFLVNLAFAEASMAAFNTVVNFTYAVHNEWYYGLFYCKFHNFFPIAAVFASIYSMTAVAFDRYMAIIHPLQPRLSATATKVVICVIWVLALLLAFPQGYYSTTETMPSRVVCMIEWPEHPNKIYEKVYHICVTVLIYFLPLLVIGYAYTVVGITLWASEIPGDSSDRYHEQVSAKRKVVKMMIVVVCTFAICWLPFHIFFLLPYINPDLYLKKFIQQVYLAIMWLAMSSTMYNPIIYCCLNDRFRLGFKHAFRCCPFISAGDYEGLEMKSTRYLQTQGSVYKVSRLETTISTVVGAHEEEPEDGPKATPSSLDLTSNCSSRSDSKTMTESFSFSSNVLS
pKi: −log10 of the molar value.
Measured Metric: pKi

Q: Please provide the recorded pKi for COc1ccc2c(C(=O)NCc3ccccc3)cc(-c3ccccc3)nc2c1 , tested on Substance-P receptor (Homo sapiens, UniProt P25103).
A: < 5.00
